system: Triticum aestivum (TRZAS); type: in vivo; details: crop plant compatibility, 20 g/ha, effect vs untreated controls
measuredProperty: Post-emergence action against TRZAS in % (%)

COC(=O)C(C)NC(=O)C(C)Oc1nn(-c2ccccn2)c(-c2ccc(F)nc2)c1Br (centres unmarked) [Example I-286]; 20

a. Cc1ncccc1-n1nc(OCC(=O)O)c(Br)c1-c1cncc(F)c1 [II-38]
b. O=C(O)COc1nn(-c2ccccn2)c(-c2ccc(F)nc2)c1Cl [Example I-266]
c. CCOC(=O)CSc1nn(-c2ccccn2)c(-c2cncc(F)c2)c1Br [Example I-125]
Challenge: Rank items: key Post-emergence action against TRZAS in %, increasing. The reply should contain the labels ordered as requested.
Response given: a, c, b

a. COC(=O)[C@@H](C)Oc1nn(-c2ncccc2F)c(-c2ccnc(F)c2)c1I [Example I-138]
b. O=C(O)COc1nn(-c2ncccc2F)c(-c2cncc(F)c2)c1Cl [Example I-169]
Challenge: Identify the entry with the smaller Post-emergence action against TRZAS in %: a or b . Select an item and report its label.
Response given: b

a. COC(=O)[C@@H](C)Oc1nn(-c2ncccc2F)c(-c2ccnc(F)c2)c1Br [Example I-134]
b. O=C(O)COc1nn(-c2ccccn2)c(-c2cncc(F)c2)c1C1CC1 [Example I-72]
Challenge: Could you kindly indicate whether a or b has the higher Post-emergence action against TRZAS in % value? Select an item and report its label.
Response given: a
(a: 20%, b: 10%)

----------
System: Echinochloa crus-galli (ECHCG)
Experiment: Pre-emergence herbicidal action against ECHCG
Format: in vivo
Conditions: dosage 320 g/ha
From the text: Seeds of monocotyledonous and dicotyledonous weed plants and crop plants are placed in plastic or organic planting pots and covered with soil. […] After about 3 weeks, the effect of the preparations is scored visually in comparison with untreated controls as percentages. […]
Known Pre-emergence action against ECHCG in % of a selection of compounds
Express it in %; write the number only.

Challenge: Which Pre-emergence action against ECHCG in % value is on record for `CCOC(=O)COc1nn(-c2ncccc2F)c(-c2ccc(F)nc2)c1Cl` ?
Response given: 100

Challenge: Which Pre-emergence action against ECHCG in % value is on record for `COC(=O)CCOC(=O)COc1nn(-c2ccccn2)c(-c2ccc(F)nc2)c1Br` ?
Response given: 100

Challenge: Which Pre-emergence action against ECHCG in % value is on record for `COC(=O)[C@@H](C)Oc1nn(-c2ncccc2F)c(-c2cccnc2)c1Br` ?
Response given: 80

----------
system: Verconica persica (VERPE); assay: Post-emergence herbicidal action against VERPE; assay type: in vivo; settings: dosage 80 g/ha
measuredProperty: Post-emergence action against VERPE in % (%)
Express it in %; write the number only.

Recorded Post-emergence action against VERPE in %, per entry:
COC(=O)C(C)COC(=O)[C@@H](C)Oc1nn(-c2ccccn2)c(-c2cncc(F)c2)c1Br (some centres unmarked); 80
CCOC(=O)COc1nn(-c2ncccc2F)c(-c2ccc(F)nc2)c1Cl; 80

Okay, now this compound:
Challenge: Which Post-emergence action against VERPE in % value is on record for `COC(=O)[C@@H](C)Oc1nn(-c2ccccn2)c(-c2ccc(F)nc2)c1Br` ?
Response given: 80

----------
Tested on: Lolium rigidum (LOLRI)
Assay: Pre-emergence herbicidal action against LOLRI
Type: in vivo
Conditions: dosage 320 g/ha
Description: Seeds of monocotyledonous and dicotyledonous weed plants and crop plants are placed in plastic or organic planting pots and covered with soil. […] After about 3 weeks, the effect of the preparations is scored visually in comparison with untreated controls as percentages. […]
measuredProperty: Pre-emergence action against LOLRI in % (%)
Express it in %; write the number only.

Recorded Pre-emergence action against LOLRI in %, per entry:
COCCOC(=O)COc1nn(-c2cccc(C)n2)c(-c2ccc(F)nc2)c1Br [Example I-277]; 90
COC(=O)COc1nn(-c2ncccc2F)c(-c2cncc(F)c2)c1C1CC1 [Example I-167]; 100

Challenge: Which Pre-emergence action against LOLRI in % value is on record for C[C@@H](Oc1nn(-c2ccc(F)cn2)c(-c2cncc(F)c2)c1Br)C(=O)O [Example I-13] ?
Response given: 90

Challenge: Which Pre-emergence action against LOLRI in % value is on record for CCOC(=O)COc1nn(-c2ccccn2)c(-c2ccc(F)nc2)c1Br [Example I-02] ?
Response given: 100

Challenge: Which Pre-emergence action against LOLRI in % value is on record for O=C(O)COc1nn(-c2nc(F)ccc2F)c(-c2ccc(F)nc2)c1Cl [Example I-337] ?
Response given: 100

Challenge: Which Pre-emergence action against LOLRI in % value is on record for COC(=O)CNC(=O)[C@@H](C)Oc1nn(-c2ccccn2)c(-c2cncc(F)c2)c1Cl [Example I-185] ?
Response given: 100

Challenge: Which Pre-emergence action against LOLRI in % value is on record for O=C(O)CSc1nn(-c2ccccn2)c(-c2cncc(Cl)c2)c1Br [Example I-126] ?
Response given: 100

Challenge: Which Pre-emergence action against LOLRI in % value is on record for COC(=O)C(C)COC(=O)[C@@H](C)Oc1nn(-c2ccccn2)c(-c2cncc(F)c2)c1Br (some centres unmarked) [Example I-188] ?
Response given: 100

Challenge: Which Pre-emergence action against LOLRI in % value is on record for CCOC(=O)[C@@H](C)Oc1nn(-c2ncccc2F)c(-c2ccc(F)nc2)c1Br [Example I-33] ?
Response given: 100

Challenge: Which Pre-emergence action against LOLRI in % value is on record for COC(=O)COc1nn(-c2nc(F)ccc2F)c(-c2cncc(F)c2)c1Cl [Example I-216] ?
Response given: 80

Challenge: Which Pre-emergence action against LOLRI in % value is on record for CS(=O)(=O)NC(=O)COc1nn(-c2ncccc2F)c(-c2ccc(F)nc2)c1Br [Example I-44] ?
Response given: 100

Challenge: Which Pre-emergence action against LOLRI in % value is on record for O=C(O)COc1nn(-c2nc(F)ccc2F)c(-c2cncc(F)c2)c1Cl [Example I-231] ?
Response given: 80

Challenge: Which Pre-emergence action against LOLRI in % value is on record for COC(=O)COc1nn(-c2ncccc2F)c(-c2cncc(F)c2)c1Br [Example I-16] ?
Response given: 100

Challenge: Which Pre-emergence action against LOLRI in % value is on record for C[C@@H](Oc1nn(-c2ccccn2)c(-c2ccc(Cl)nc2)c1Br)C(=O)O [Example I-240] ?
Response given: 90

----------
System: Triticum aestivum (TRZAS)
Format: in vivo
Conditions: pre-emergence, 80 g/ha, crop plant compatibility, in comparison to untreated controls
Source text: Seeds of monocotyledonous and dicotyledonous weed plants and crop plants are placed in plastic or organic planting pots and covered with soil. […] After about 3 weeks, the effect of the preparations is scored visually in comparison with untreated controls as percentages. […]
measuredProperty: Pre-emergence action against TRZAS in % (%)

CCOC(=O)CSc1nn(-c2ccccn2)c(-c2cncc(F)c2)c1Br [Example I-125]; 10

1. O=C(O)CSc1nn(-c2ccccn2)c(-c2cncc(F)c2)c1Cl [Example I-217]
2. COC(=O)CSc1nn(-c2ccccn2)c(-c2cncc(F)c2)c1Br [Example I-151]
Challenge: Identify the entry with the smaller Pre-emergence action against TRZAS in %: 1 or 2 . Select an item and report its label.
Response given: 1

P. O=C(O)COc1nn(-c2ccncc2)c(-c2ccc(F)nc2)c1Br [III-09]
Q. COC(=O)CCOC(=O)COc1nn(-c2ccccn2)c(-c2cncc(F)c2)c1C1CC1 [Example I-71]
Challenge: Identify the entry with the smaller Pre-emergence action against TRZAS in %: P or Q . Select an item and report its label.
Response given: P
(P: 0%, Q: 10%)

----------
system: Avena fatua (AVEFA); assay: Post-emergence herbicidal action against AVEFA; type: in vivo; conditions: 320 g/ha, visual rating about 3 weeks after treatment
measuredProperty: Post-emergence action against AVEFA in % (%)
Express it in %; write the number only.

Recorded Post-emergence action against AVEFA in %, per entry:
COC(=O)COc1nn(-c2ncccc2F)c(-c2ccnc(F)c2)c1Br [Example I-130]; 90
COC(=O)COc1nn(-c2ncccc2F)c(-c2ccc(F)nc2)c1Br [Example I-07]; 90
CCOC(=O)COc1nn(-c2ncccc2F)c(-c2ccc(F)nc2)c1F [Example I-354]; 80

Okay, now this compound:
Challenge: API: value(readout=Post-emergence action against AVEFA in %, system=Avena fatua (AVEFA)) for record COC(=O)COc1nn(-c2nc(F)ccc2F)c(-c2cncc(F)c2)c1Cl [Example I-216]
Response given: 80
